test system: fusion protein PRM
Sequence (chain, as listed by the source): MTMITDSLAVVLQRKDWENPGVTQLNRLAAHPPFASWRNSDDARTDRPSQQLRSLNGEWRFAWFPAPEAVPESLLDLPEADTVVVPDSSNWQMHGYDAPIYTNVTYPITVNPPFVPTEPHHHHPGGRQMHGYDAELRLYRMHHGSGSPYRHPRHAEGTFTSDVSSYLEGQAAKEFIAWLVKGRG
measured parameter: relative cleavage efficiency

protein | result
OmpT protease variant OmpT D97G (protein) STETLSFTPDNINADISLGTLSGKTKERVYLAEEGGRKVSQLDWKFNNAAIIKGAINWDLMPQISIGAAGWTTLGSRGGNMVDQDWMDSSNPGTWTGESRHPDTQLNYANEFDLNIKGWLLNEPNYRLGLMAGYQESRYSFTARGGSYIYSSEEGFRDDIGSFPNGERAIGYKQRFKMPYIGLTGSYRYEDFELGGTFKYSGWVESSDNDEHYDPGKRITYRSKVKDQNYYSVAVNAGYYVTPNAKVYVEGAWNRVTNKKGNTSLYDHNNNTSDYSKNGAGIENYNFITTAGLKYTF | less than 3.0%
OmpT protease variant OmpT D97I (protein) STETLSFTPDNINADISLGTLSGKTKERVYLAEEGGRKVSQLDWKFNNAAIIKGAINWDLMPQISIGAAGWTTLGSRGGNMVDQDWMDSSNPGTWTIESRHPDTQLNYANEFDLNIKGWLLNEPNYRLGLMAGYQESRYSFTARGGSYIYSSEEGFRDDIGSFPNGERAIGYKQRFKMPYIGLTGSYRYEDFELGGTFKYSGWVESSDNDEHYDPGKRITYRSKVKDQNYYSVAVNAGYYVTPNAKVYVEGAWNRVTNKKGNTSLYDHNNNTSDYSKNGAGIENYNFITTAGLKYTF | less than 3.0%
OmpT protease variant OmpT D97F (protein) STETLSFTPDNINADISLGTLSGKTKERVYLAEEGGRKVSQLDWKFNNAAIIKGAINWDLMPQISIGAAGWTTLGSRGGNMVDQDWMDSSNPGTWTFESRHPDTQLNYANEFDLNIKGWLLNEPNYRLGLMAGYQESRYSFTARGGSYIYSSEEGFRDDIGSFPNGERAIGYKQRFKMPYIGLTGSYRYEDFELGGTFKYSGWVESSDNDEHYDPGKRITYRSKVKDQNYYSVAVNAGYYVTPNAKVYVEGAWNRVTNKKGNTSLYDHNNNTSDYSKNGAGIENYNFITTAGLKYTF | < 3%
OmpT protease variant OmpT D97S (protein) STETLSFTPDNINADISLGTLSGKTKERVYLAEEGGRKVSQLDWKFNNAAIIKGAINWDLMPQISIGAAGWTTLGSRGGNMVDQDWMDSSNPGTWTSESRHPDTQLNYANEFDLNIKGWLLNEPNYRLGLMAGYQESRYSFTARGGSYIYSSEEGFRDDIGSFPNGERAIGYKQRFKMPYIGLTGSYRYEDFELGGTFKYSGWVESSDNDEHYDPGKRITYRSKVKDQNYYSVAVNAGYYVTPNAKVYVEGAWNRVTNKKGNTSLYDHNNNTSDYSKNGAGIENYNFITTAGLKYTF | < 3%
OmpT protease variant OmpT D97K (protein) STETLSFTPDNINADISLGTLSGKTKERVYLAEEGGRKVSQLDWKFNNAAIIKGAINWDLMPQISIGAAGWTTLGSRGGNMVDQDWMDSSNPGTWTKESRHPDTQLNYANEFDLNIKGWLLNEPNYRLGLMAGYQESRYSFTARGGSYIYSSEEGFRDDIGSFPNGERAIGYKQRFKMPYIGLTGSYRYEDFELGGTFKYSGWVESSDNDEHYDPGKRITYRSKVKDQNYYSVAVNAGYYVTPNAKVYVEGAWNRVTNKKGNTSLYDHNNNTSDYSKNGAGIENYNFITTAGLKYTF | less than 3.0%
OmpT protease variant OmpT D97R (protein) STETLSFTPDNINADISLGTLSGKTKERVYLAEEGGRKVSQLDWKFNNAAIIKGAINWDLMPQISIGAAGWTTLGSRGGNMVDQDWMDSSNPGTWTRESRHPDTQLNYANEFDLNIKGWLLNEPNYRLGLMAGYQESRYSFTARGGSYIYSSEEGFRDDIGSFPNGERAIGYKQRFKMPYIGLTGSYRYEDFELGGTFKYSGWVESSDNDEHYDPGKRITYRSKVKDQNYYSVAVNAGYYVTPNAKVYVEGAWNRVTNKKGNTSLYDHNNNTSDYSKNGAGIENYNFITTAGLKYTF | less than 3.0%

**Query** Indicate its recorded relative cleavage efficiency; the protein in question is OmpT protease variant OmpT D97Y (protein) STETLSFTPDNINADISLGTLSGKTKERVYLAEEGGRKVSQLDWKFNNAAIIKGAINWDLMPQISIGAAGWTTLGSRGGNMVDQDWMDSSNPGTWTYESRHPDTQLNYANEFDLNIKGWLLNEPNYRLGLMAGYQESRYSFTARGGSYIYSSEEGFRDDIGSFPNGERAIGYKQRFKMPYIGLTGSYRYEDFELGGTFKYSGWVESSDNDEHYDPGKRITYRSKVKDQNYYSVAVNAGYYVTPNAKVYVEGAWNRVTNKKGNTSLYDHNNNTSDYSKNGAGIENYNFITTAGLKYTF
**Result** less than 3.0%

**Query** Indicate its recorded relative cleavage efficiency; the protein in question is OmpT protease variant OmpT D97H (protein) STETLSFTPDNINADISLGTLSGKTKERVYLAEEGGRKVSQLDWKFNNAAIIKGAINWDLMPQISIGAAGWTTLGSRGGNMVDQDWMDSSNPGTWTHESRHPDTQLNYANEFDLNIKGWLLNEPNYRLGLMAGYQESRYSFTARGGSYIYSSEEGFRDDIGSFPNGERAIGYKQRFKMPYIGLTGSYRYEDFELGGTFKYSGWVESSDNDEHYDPGKRITYRSKVKDQNYYSVAVNAGYYVTPNAKVYVEGAWNRVTNKKGNTSLYDHNNNTSDYSKNGAGIENYNFITTAGLKYTF
**Result** 4.6%
